- ASSAY_SYSTEM: Prostaglandin E2 receptor EP2 subtype (Homo sapiens) (UniProt P43116)
- Sequence (P43116 whole entry, looked up): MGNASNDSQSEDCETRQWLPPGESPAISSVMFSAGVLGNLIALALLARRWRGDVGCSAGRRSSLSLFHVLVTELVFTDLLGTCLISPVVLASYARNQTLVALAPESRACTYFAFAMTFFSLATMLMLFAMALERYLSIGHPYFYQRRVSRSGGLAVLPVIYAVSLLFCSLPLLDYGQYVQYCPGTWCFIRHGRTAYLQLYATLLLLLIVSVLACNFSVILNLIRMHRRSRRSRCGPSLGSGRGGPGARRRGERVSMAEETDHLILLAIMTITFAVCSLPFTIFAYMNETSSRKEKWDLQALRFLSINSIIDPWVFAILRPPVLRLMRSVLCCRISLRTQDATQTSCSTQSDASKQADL
- PROCEDURE_SUMMARY: EP2 receptor modulators, dose response, cell-based, human EP2, PGE2 EC50 shift (AID 1421)
- TEST_SETTINGS: EP2-expressing cells, PGE2 EC50 shift by compound; measured here: PGE2 EC50 at 6.7 uM compound
Response key: T means PGE2 EC50 with compound >= 1 nM; F means PGE2 EC50 with compound < 1 nM.

Quick check: does COc1cccc(N=c2oc3c(C)ncc(CO)c3cc2C(=O)Nc2ccccc2OC)c1 have PGE2 EC50 with compound greater than or equal to 1 nM?
T

Quick check: does C=CCSc1nc2ccccc2n1S(=O)(=O)c1ccc(Cl)cc1 have PGE2 EC50 with compound greater than or equal to 1 nM?
F

Quick check: does CCOC(=O)c1c(NC(=O)CC(C)C)sc(C(C)=O)c1C have PGE2 EC50 with compound greater than or equal to 1 nM?
T

Quick check: does COc1cc(OC)c(OC)cc1CNCCc1ccc(OC)c(OC)c1 have PGE2 EC50 with compound greater than or equal to 1 nM?
T

Quick check: does N#CN=C1SCCS1 have PGE2 EC50 with compound greater than or equal to 1 nM?
F

Quick check: does CCOC(=O)c1cc2sc(C)cc2n1C(C)C(=O)OCC (configuration not stated) have PGE2 EC50 with compound greater than or equal to 1 nM?
F

Quick check: does O=C(O)NCc1ccccc1 (tested in a mixture with another compound) have PGE2 EC50 with compound greater than or equal to 1 nM?
T

Quick check: does O=c1c2ccccc2nc2n1C1(CCCCC1)Cc1ccccc1-2 have PGE2 EC50 with compound greater than or equal to 1 nM?
F

Quick check: does CSc1ncc2c(n1)-c1cc(C)ccc1SC2 have PGE2 EC50 with compound greater than or equal to 1 nM?
F

Quick check: does CC1(C)Cc2nc3nc(SCC(=O)Nc4ccccc4)nc(N)c3cc2CO1 have PGE2 EC50 with compound greater than or equal to 1 nM?
T

Quick check: does NC(=O)CSc1nnc(-c2cccc(S(=O)(=O)N3CCOCC3)c2)n1C1CCCCCC1 have PGE2 EC50 with compound greater than or equal to 1 nM?
T
